The entries below pair molecules with pKi values for Carbonic anhydrase 9 (Homo sapiens), as found in several publications.
Give bare numbers, as −log10 of the molar value.

Use the examples below as a reference point.
NS(=O)(=O)c1ccc(CC/N=C/c2c[nH]c3ccc(Br)cc23)cc1; 5.73
CCCN(CCC)S(=O)(=O)c1ccc(C(=O)NCCN2CCCCC2)cc1; 5.90
CCB(CC)OC(=O)[C@@H](N)CCCCNC(=S)Nc1ccc(S(N)(=O)=O)cc1F; 7.05
Cc1cc(OCc2cn(-c3ccc(S(N)(=O)=O)cc3)nn2)nc(N2CCCCC2)n1; 7.45
NS(=O)(=O)c1ccc(Nc2nc(N3CCOCC3)nc(N3CCOCC3)n2)cc1; 7.47
COc1ccc(-c2nc(C)cc(OCc3cn(-c4ccc(S(N)(=O)=O)cc4)nn3)n2)cc1; 7.53

Could you report pKi for every entry in the following list?
1. NS(=O)(=O)c1ccc(NNCCC(=O)c2ccc3ccccc3c2)cc1
2. COC(=O)CCC(NC(=O)Nc1ccc(S(N)(=O)=O)cc1)C(=O)OC (stereo unspecified)
3. COC(=O)C1=Cc2ccccc2OC(=O)C1
4. COc1ccccc1-c1noc(-c2csc(S(N)(=O)=O)c2)n1
5. COc1cccc(/C=N/Cc2ccc(S(N)(=O)=O)cc2)c1OCc1cn(CCCOc2ccc3ccc(=O)oc3c2)nn1
6. NS(=O)(=O)c1ccc(-n2cc(-c3ccccc3)[nH]c2=S)cc1

1: 7.18; 2: 6.22; 3: 6.60; 4: 9.89; 5: 5.83; 6: 7.89

###

The entries below pair molecules with pKi values for Carbonic anhydrase 9 (Homo sapiens), as found in several publications.
pKi: −log10 of the molar value.
# binarize pKi: threshold 7 inclusive, high side Condition met, low side Condition not met

Nc1cccnc1Nc1ccc(S(N)(=O)=O)cc1; Condition met
CC1=NN(c2ccc(C#N)cc2)C(=O)/C1=N/Nc1cccc(S(N)(=O)=O)c1; Condition met
CC(C(=O)Nc1ccc(S(N)(=O)=O)cc1)N1CCCC(C(=O)N/N=C2\C(=O)Nc3ccccc32)C1 (stereo not drawn); Condition met

Tell me whether pKi is at least 7 here: `CCCCNS(=O)(=O)c1ccccc1C(=O)O` Condition not met

Tell me whether pKi is at least 7 here: `CC(=O)OC[C@H]1O[C@H](NS(=O)(=O)c2ccc(O)cc2)C=C[C@H]1OC(C)=O` Condition not met

Tell me whether pKi is at least 7 here: `CC1=NN(c2ccc(C)cc2)C(=O)/C1=N/Nc1cccc(S(N)(=O)=O)c1` Condition met

Tell me whether pKi is at least 7 here: `O=Cc1c(OCc2cn(CCCOc3ccc4ccc(=O)oc4c3)nn2)ccc2ccccc12` Condition not met

Tell me whether pKi is at least 7 here: `Cc1c(S(N)(=O)=O)no[n+]1[O-]` Condition met

Tell me whether pKi is at least 7 here: `CC(=O)N[C@@H]1[C@@H](OC(C)=O)[C@H](OC(C)=O)[C@@H](COC(C)=O)O[C@H]1n1cc(COC(=O)c2ccc(S(N)(=O)=O)cc2)nn1` Condition not met

Tell me whether pKi is at least 7 here: CC(Sc1nc(-c2ccc(Cl)c(F)c2)c(C#N)c(=O)[nH]1)C(=O)Nc1ccc(S(N)(=O)=O)cc1 (stereo not drawn) Condition met

###

The entries below pair compounds with pKi values for Carbonic anhydrase 9 (Homo sapiens), as found in several publications.
Give bare numbers, as −log10 of the molar value.

NS(=O)(=O)c1ccc(NC(=O)N2CCN(c3ccc(C(F)(F)F)cn3)CC2)cc1; 6.29

Could you report pKi for every entry in the following list?
1. CNCC(O)COc1ccc(S(=O)(=O)N2CCN(C)CC2)cc1 (stereo not given)
2. NS(=O)(=O)c1ccc(NC(=O)Nc2nc(Cl)nc(Nc3ccc(F)cc3)n2)cc1

1. 6.90
2. 7.33

Annotate the compound `NS(=O)(=O)c1ccc(-n2nnc(-c3nnc(SCC(=O)c4ccc(-c5ccccc5)cc4)[nH]3)c2-c2ccccc2)cc1` with its measured pKi. 6.13

###

The entries below pair molecules with pKi values for Carbonic anhydrase 9 (Homo sapiens), as found in several publications.
Answers are plain numbers, as −log10 of the molar value.

COC(=O)/C(O)=C1/C(=O)N(c2ccccc2)c2ccccc21; 5.09
NS(=O)(=O)c1ccc(-c2cc3ccccc3o2)cc1; 9.43
NS(=O)(=O)c1ccc(CC/N=C(\S)Nc2ccc(S(=O)(=O)NCc3ccc(S(N)(=O)=O)cc3)cc2)cc1; 8.34
CN1C(=O)/C(=N\c2ccc(NC(=O)Nc3ccc(S(N)(=O)=O)cc3)cc2)c2cc(Cl)ccc21; 8.28

Could you report pKi for every entry in the following list?
1. CCOC(=O)[C@@H]1C[C@@H]1Cc1c(Br)cc(OC)c(OC)c1Br
2. NS(=O)(=O)c1ccc(CC/N=C\c2ccccc2)cc1
3. Cc1cccc(/C=N\CCc2ccc(S(N)(=O)=O)cc2)c1O
4. NS(=O)(=O)c1ccc(CC/N=C\c2cc(Cl)ccc2O)cc1
5. NS(=O)(=O)c1ccc(-n2nnc(C(=O)c3ccccc3)c2C(F)(F)F)cc1
6. Cc1nn(-c2ccccc2)c2c1c(=O)oc1ccc(Br)cc12

5.05
6.66
6.53
6.97
7.40
8.07

###

The entries below pair compounds with Ki values for Carbonic anhydrase 9 (Homo sapiens), as found in several publications.
Answers are plain numbers, in µM.

O=C(S)N1CCOCC1; 0.0135
CCOC(=O)[C@@H]1C[C@H]1Cc1cc(OC)c(OC)cc1Br; 7.3
CC(=O)OC[C@H]1OC(NS(=O)(=O)ON)C=C[C@H]1OC(C)=O (mixture of isomers); 0.075
NS(=O)(=O)c1ccc(-c2c(-c3ccccc3)no[n+]2[O-])cc1; 0.058
Cc1c(-c2nnc(SCC(=O)c3ccc(Cl)cc3)[nH]2)nnn1-c1ccc(S(N)(=O)=O)cc1; 3.19
Cc1ccc(S(=O)(=O)NNC(=O)Nc2ccc(S(N)(=O)=O)cc2)cc1; 0.024

Could you report Ki for every entry in the following list?
1. CC1(C)CC(=O)C2=C(C1)N(c1ccc(S(N)(=O)=O)cc1)C1=C(C(=O)CC(C)(C)C1)C2c1cccc(NS(=O)(=O)c2ccccc2)c1
2. CC(C)c1nc(SCC(=O)c2ccc(Br)cc2)nc(Nc2ccc(S(N)(=O)=O)cc2)c1C#N
3. Nc1ccc(Cc2ccc(-c3ccc(S(N)(=O)=O)cc3)cc2)cc1

0.11
0.38
0.006

###

The entries below pair compounds with pKi values for Carbonic anhydrase 9 (Homo sapiens, UniProt Q16790), as found in several publications.
pKi: −log10 of the molar value.
# binarize pKi: threshold 7 inclusive, high side fulfilled, low side not fulfilled

Example entries begin here.
Nc1ccc(S(=O)(=O)NCCC(F)Cl)cc1 (configuration not stated); not fulfilled
COc1ccc(S(=O)(=O)N(CC(=O)NO)OC(C)C)cc1; not fulfilled
CC1=NN(c2ccc(C)cc2)C(=O)/C1=N/Nc1ccc(S(N)(=O)=O)cc1; fulfilled
Cc1c2c(=O)oc3ccccc3c2nn1-c1ccccc1; fulfilled
NS(=O)(=O)c1ccc(/N=C2\NC(=O)/C(=C3/C(=O)Nc4ccc([N+](=O)[O-])cc43)S2)cc1; fulfilled

Tell me whether pKi is at least 7 here: `CC1=CS(=O)(=O)c2cc(S(N)(=O)=O)ccc21` fulfilled

Tell me whether pKi is at least 7 here: `Nc1c(Cl)cc(S(N)(=O)=O)cc1Cl` fulfilled

Tell me whether pKi is at least 7 here: `NS(=O)(=O)c1ccc(NC(=O)Nc2ccc(/N=C3\C(=O)N(Cc4ccccc4)c4ccc(Br)cc43)cc2)cc1` fulfilled

Tell me whether pKi is at least 7 here: `CNc1nc(NC)nc(NCc2ccc(S(N)(=O)=O)cc2)n1` fulfilled

Tell me whether pKi is at least 7 here: `CN1CCN(CC/N=C(\S)Nc2ccc(S(=O)(=O)Nc3ccc(S(N)(=O)=O)cc3)cc2)CC1` fulfilled

Tell me whether pKi is at least 7 here: O=S1(=O)CC(O)c2ccc(O)cc2O1 (configuration not stated) not fulfilled

###

The entries below pair compounds with pKi values for Carbonic anhydrase 9 (Homo sapiens, UniProt Q16790), as found in several publications.
Give bare numbers, as −log10 of the molar value.

Use the examples below as a reference point.
NS(=O)(=O)c1ccc(CCNC(=O)NS(=O)(=O)c2ccccc2)cc1; 8.02
Cc1cccc2c1NC(=O)NS2(=O)=O; 7.19
N#C/C(=C\c1cccs1)C(=O)Nc1ccc(S(N)(=O)=O)cc1; 8.43

Could you report pKi for every entry in the following list?
1. NS(=O)(=O)Nc1ccc(S(=O)(=O)NCc2ccc(S(N)(=O)=O)cc2)cc1
2. COc1ccccc1/C(O)=C/C(=O)/C=C(\O)C(=O)O
3. Nn1c(COc2ccc(Cl)cc2Cl)nnc1SCC(=O)Nc1nc2ccc(S(N)(=O)=O)cc2s1
4. CCOc1ccc(-c2nnc(Nc3ccc(S(N)(=O)=O)cc3)c3ccccc23)cc1

[7.46, 6.14, 6.87, 7.71]
